system: TAFI purifié (Homo sapiens)
Sequence (Q96IY4 115-423): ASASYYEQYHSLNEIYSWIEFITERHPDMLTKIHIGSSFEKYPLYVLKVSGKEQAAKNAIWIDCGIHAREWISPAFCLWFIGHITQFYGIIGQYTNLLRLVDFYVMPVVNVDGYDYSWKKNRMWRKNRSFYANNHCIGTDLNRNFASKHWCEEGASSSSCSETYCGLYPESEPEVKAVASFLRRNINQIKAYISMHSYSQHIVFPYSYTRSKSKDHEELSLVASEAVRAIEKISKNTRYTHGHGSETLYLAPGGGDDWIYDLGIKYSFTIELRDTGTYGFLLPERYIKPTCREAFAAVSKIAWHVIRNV
measurement description: Colorimetric TAFI activity assay on purified TAFI with different substrates (thrombin/thrombomodulin activation, carboxypeptidase A revelation)
Format: biochemical
test context: substrate 5 mM; 6,5 µg/ml TAFI purifié in hépès buffer; read at 320-350 nm

| compound | system | DO finale |
| --- | --- | --- |
| Cc1ccc(C)c(N=NC(=O)N[C@@H](Cc2ccccc2)C(=O)N[C@@H](CCCNC(=N)N)C(=O)O)c1 [2,5 DMPAFFR] | TAFI purifié (Homo sapiens) | 0.131 |
| Cc1ccc(N=NC(=O)N[C@@H](Cc2ccccc2)C(=O)N[C@@H](CCCNC(=N)N)C(=O)O)c(C)c1 [2,4 DMPAFFR] | TAFI purifié (Homo sapiens) | 0.087 |
| Cc1cccc(N=NC(=O)N[C@@H](Cc2ccccc2)C(=O)N[C@@H](CCCNC(=N)N)C(=O)O)c1C [2,3 DMPAFFR] | TAFI purifié (Homo sapiens) | 0.089 |
| COc1ccc(N=NC(=O)N[C@@H](Cc2ccccc2)C(=O)N[C@@H](CCCCN)C(=O)O)cc1 [MxPAFFK] | TAFI purifié (Homo sapiens) | 0.131 |
